TEST PROTOCOL: Human HepG2 cell viability assay in 384 well format
Format: toxicity, cell-based
Parameters: dose 125 nL, time 70.5 hour; concentration not given beside the values
REPORTED CONDITIONS: HepG2 cells, read-out: Inhibition
As shown below, each of these compounds has a reported cytotoxicity at 70.5 h value.
READOUT KIND: cytotoxicity at 70.5 h (%)

1. CN(C)C(=O)c1n[nH]c2c1CN(Cc1ccccn1)CC2 :: -3.26
2. CCn1nc(CC(C)C)cc1C(=O)N1CCOCC(O)C1 (stereo unspecified) :: -2.68
3. CCc1ccc(S(=O)(=O)NCCOc2ccc3nnc(C)n3n2)s1 :: -11.7
4. COc1ccccc1[C@@H]1CN(CC2CCC2)C[C@H]1C(=O)O :: -5.88
5. Cn1ccnc1CN1CCC2(CC1)CC(N1CCCC1)c1ccccc12 (stereo unspecified) :: -4.57
6. COc1ccc(CNCc2ccnc(N3CCOCC3)c2)cc1OC :: -10.1

###

Parameter: cytotoxicity at 70.5 h. Scope: all listed entries.
TEST PROTOCOL: Human HepG2 cell viability assay in 384 well format
Type: toxicity, cell-based
Design: dose 125 nL, time 70.5 hour; concentration not given beside the values
REPORTED CONDITIONS: HepG2 cells, read-out: Inhibition
READOUT KIND: cytotoxicity at 70.5 h (%)

1. N[C@H]1CN(C(=O)c2ccc3[nH]c(CO)nc3c2)C[C@@H]1c1ccccc1 :: -19.4
2. CCc1nnc2n1CCN(C(=O)CCc1ccc3c(c1)OCO3)C2 :: -18.7
3. Cc1ccc(N2CCN(C(=O)CCc3n[nH]c(C)c3C)CC2=O)cc1 :: -0.118
4. COc1cc(C(=O)NS(=O)(=O)c2cncc(Br)c2)cc(Cl)c1OC :: -15.8
5. CNC(=O)CS(=O)(=O)C1CCN(S(=O)(=O)c2cccc(Cl)c2C)CC1 :: -9.92
6. O=C(c1cc2c(s1)CCC2)N1CCCC1Cn1cccn1 (configuration not stated) :: -1.69
7. CN(C)c1cc(CNC(=O)c2cccnc2O)ccn1 :: -12.1
8. Cc1nnc(C(NS(=O)(=O)c2cc(C#N)ccc2C)C(C)C)[nH]1 (configuration not stated) :: -5.93
9. c1sc(C2CCCCC2)nc1CN1CCn2c(nnc2C2CC2)C1 :: -3.37
10. O=C1NC(c2ccccc2)=N[C@@]12CC[C@@H]1CN(CC3CCOCC3)C[C@@H]12 :: 23.3
11. Clc1cccc(-n2cnnn2)c1N1CCOCC1 :: -5.42
12. CCc1noc(C)c1C(=O)N1CCCN(Cc2csc(C)n2)CC1 :: -9.45
13. CC(C)c1cc(CN(C)C(=O)C(C)N2CCc3ccccc3C2)no1 (configuration not stated) :: 34.4
14. CCn1cnnc1C1CCN(C(=O)c2cccc3c2ccn3C)CC1 :: 6.06
15. CS(=O)(=O)N1CCC2(CC1)CN(CC1CC1)CC21CCNC1=O (configuration not stated) :: -9.45
16. O=C1CN(Cc2cn(CC3CCN(C4CCSCC4)CC3)nn2)CCN1 :: 20.3
17. Cn1ccc(C(=O)N2CCN(c3cc(C#N)ccn3)CC2)cc1=O :: -7.65
18. Cn1ccnc1-c1ccc(NCCC2COc3ccccc3O2)nn1 (configuration not stated) :: -4.08
19. CC(C)CN1C[C@@H]2C(=O)N(C)C3(CCN(C(=O)C(C)C)CC3)[C@@H]2C1 :: -6.33
20. Cc1ccc(C(=O)NS(=O)(=O)Cc2ccc(F)cc2)cc1S(C)(=O)=O :: -3.12
21. COC(=O)C(C)N(Cc1cc(C)on1)C1CC1 (configuration not stated) :: -5.22
22. FC(F)(F)c1nc(C2CCCNC2)no1 (configuration not stated) :: -0.742
23. N#Cc1ccccc1N1CCCN(C(=O)CCc2nccs2)CC1 :: -21.6
24. CC(C)OCC(=O)N1CCCN(Cc2ccc(C#N)cc2)CC1 :: 5.66
25. COCc1nc2cc(NCc3scnc3C)ccc2o1 :: -5.1
26. Cc1cc(C(O)CCNC(=O)COc2ccccc2F)c(C)o1 (configuration not stated) :: -0.424
27. COc1cccc(-n2nnc(C(=O)N3CCC(C(N)=O)CC3)c2C)c1 :: -8.91
28. Cc1c(C(=O)NCc2ccnc(OCC(F)(F)F)c2)cnn1C :: -4.98
29. Cc1noc(C)c1CN(C)C(=O)C1CCCc2ccccc21 (configuration not stated) :: -0.492
30. COc1cccc(C(c2c(C)n[nH]c2O)c2c(C)n[nH]c2O)c1OC :: -11.7
31. Cc1ccc(NCCCNC(=O)C2CCCN(Cc3ccco3)C2)nc1 (configuration not stated) :: 7.19
32. O=C(c1cnc2n1CCCC2)N1CCCC1 :: -2.75
33. CC(C)Cc1nc(CSC2CCCN(c3cnn(C)c3)C2=O)no1 (configuration not stated) :: -1.14
34. Cc1cc(C)n(CC2CN(Cc3noc(C)n3)CCO2)n1 (configuration not stated) :: 10.1
35. O=C(c1c(F)cccc1F)N1CCC[C@@H]1Cn1c(=O)oc2ccccc21 :: -0.473
36. CC[C@@H](C)[C@@H](N)C(=O)Nc1cccc(-c2cnc(N(C)CCO)nc2)c1 :: -6.3
37. COc1ccc(NC(=O)c2cc3c([nH]c2=O)CCCC3=O)c(OC)c1 :: -10.9
38. CN1CC(C(=O)NCCc2ccc3c(c2)OCCO3)CC1=O (configuration not stated) :: -1.68
39. O=C(NCc1ccco1)N(CCCO)C1CCCc2ccccc21 (configuration not stated) :: -5.76
40. Cc1cc(=O)[nH]c(-n2nc(C3CC3)cc2N)n1 :: 29.2
41. Cc1nc(CO[C@@H]2CN(Cc3cnn(C)c3)[C@@H]3COC[C@@H]32)cs1 :: 5.43
42. CO[C@H]1CN(c2ccccc2)S(=O)(=O)[C@@]12CCN(Cc1ccccc1)C2 :: 19.1
43. CCC(CN1CCCC1)NC(=O)Cc1c(C)[nH]c2cc(C)cc(C)c12 (configuration not stated) :: -4.71
44. CC(=O)N1Cc2ccccc2CC1C(=O)Nc1ccc(C)cn1 (configuration not stated) :: -15.7
45. CC(C)CN1CCC2(CCN(CC3CC3)CC2)C1=O :: -8.5
46. COc1ccccc1C(NC(=O)C1CCC1)c1noc(C)n1 (configuration not stated) :: -5.9
47. O=C(NCCSc1cnn[nH]1)c1c[nH]nc1C1CCCCC1 :: 1.5
